Hello, the source for this data is patent US20110039762A1, in case you need it.

Tested on: MRSA
Test: Kill or inhibit growth/proliferation; morphology, biofilm and growth disruption (Tables 5, 6); also: test concentration or dose not given here
Type: cell-based, Methicillin-resistant Staphylococcus aureus
Parameters: key: A: Peptide aggregates; B: Less hyphal formation; Clumps; Diffuse clumps and small polyps; F: Diffuse growth; H: Thin; I: Growth inhibition; Microcolony formation; Rippled; Small polyps; Thick; W: Halo formation on top, microlonies on bottom

| SUBSTANCE | Organism, effect |
| --- | --- |
| PF-613: peptide having multiple activities (ADEFAKL; Peptide with targeting and/or antimicrobial activity) | MRSA (C) |
| PF-560: peptide having multiple activities (chain 1 FGNPFRGFTLAMEADFKKRK; chain 2 FGNPFRGFTLAMEADFKKRK; Peptide with targeting and/or antimicrobial activity) | MRSA (C) |
| PF-584: peptide having multiple activities (SYIKNLSNQKFLIAF; Peptide with targeting and/or antimicrobial activity) | MRSA (D) |
| PF-629: peptide having multiple activities (chain 1 GLAAIATVFALY; chain 2 GLAAIATVFALY; Peptide with targeting and/or antimicrobial activity) | MRSA (D) |
| PF-551: peptide having multiple activities (chain 1 QVKEKRREIELQFRDAEKKLEASVQAE; chain 2 QVKEKRREIELQFRDAEKKLEASVQAE; Peptide with targeting and/or antimicrobial activity) | MRSA (C) |
| PF-634: peptide having multiple activities (chain 1 MPKARPVNHNKKKSKITIKSNFTLFYMFNP; chain 2 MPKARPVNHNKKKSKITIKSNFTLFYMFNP; Peptide with targeting and/or antimicrobial activity) | MRSA (D) |
